Reported values of normalized RNA/DNA level without ligand (log10) for individual entries
B1: library; a variant is named by its letters at N, in order (parent)
chain: GCUGUCACCGGUGUAUUACCCUAGUGGUCGACCGGUCUGAUGAGUCUNNNNNNAGACGAAACAGC

Variants of: B1
protocol_summary: normalized RNA/DNA level without ligand (relative to sTRSVctl = 100) (log10 (% of sTRSVctl)); ligand: hypoxanthine (xanthine aptamer); higher = less ribozyme self-cleavage, higher mRNA level
test_conditions: HEK293T, reporter: mCherry (pCS4076), ligand present: no
reported_metric: normalized RNA/DNA level without ligand (log10)

mutations | value
GGCGAA | 1.8
AGGUCA | 1.68
CUCUUA | 1.82
GGGAGC | 1.16
GUAGUU | 1.87
UUUAAG | 1.71
ACCACG | 1.67
AGAUAG | 1.44
AGAAUG | 1.42
AAAAGG | 1.26
UCUAAU | 1.79
CUGUCU | 1.89
GUCGUA | 1.79
CAUGCG | 1.91
GCGCUG | 1.36
CUCAGA | 1.85
CAUCCA | 1.94
AUAUUG | 1.53
AAUUCC | 1.9
CAUCUG | 1.92
UAACAU | 1.78
CUAGUC | 1.91

The measurements presented in this section are drawn from the supplement of paper PMC6757056.
